TARGET_SYSTEM: human Nav1.8 (hNav1.8) ion channel (Homo sapiens, UniProt Q9Y5Y9)
Construct: expressed in transfected cells
Sequence (Q9Y5Y9 whole entry): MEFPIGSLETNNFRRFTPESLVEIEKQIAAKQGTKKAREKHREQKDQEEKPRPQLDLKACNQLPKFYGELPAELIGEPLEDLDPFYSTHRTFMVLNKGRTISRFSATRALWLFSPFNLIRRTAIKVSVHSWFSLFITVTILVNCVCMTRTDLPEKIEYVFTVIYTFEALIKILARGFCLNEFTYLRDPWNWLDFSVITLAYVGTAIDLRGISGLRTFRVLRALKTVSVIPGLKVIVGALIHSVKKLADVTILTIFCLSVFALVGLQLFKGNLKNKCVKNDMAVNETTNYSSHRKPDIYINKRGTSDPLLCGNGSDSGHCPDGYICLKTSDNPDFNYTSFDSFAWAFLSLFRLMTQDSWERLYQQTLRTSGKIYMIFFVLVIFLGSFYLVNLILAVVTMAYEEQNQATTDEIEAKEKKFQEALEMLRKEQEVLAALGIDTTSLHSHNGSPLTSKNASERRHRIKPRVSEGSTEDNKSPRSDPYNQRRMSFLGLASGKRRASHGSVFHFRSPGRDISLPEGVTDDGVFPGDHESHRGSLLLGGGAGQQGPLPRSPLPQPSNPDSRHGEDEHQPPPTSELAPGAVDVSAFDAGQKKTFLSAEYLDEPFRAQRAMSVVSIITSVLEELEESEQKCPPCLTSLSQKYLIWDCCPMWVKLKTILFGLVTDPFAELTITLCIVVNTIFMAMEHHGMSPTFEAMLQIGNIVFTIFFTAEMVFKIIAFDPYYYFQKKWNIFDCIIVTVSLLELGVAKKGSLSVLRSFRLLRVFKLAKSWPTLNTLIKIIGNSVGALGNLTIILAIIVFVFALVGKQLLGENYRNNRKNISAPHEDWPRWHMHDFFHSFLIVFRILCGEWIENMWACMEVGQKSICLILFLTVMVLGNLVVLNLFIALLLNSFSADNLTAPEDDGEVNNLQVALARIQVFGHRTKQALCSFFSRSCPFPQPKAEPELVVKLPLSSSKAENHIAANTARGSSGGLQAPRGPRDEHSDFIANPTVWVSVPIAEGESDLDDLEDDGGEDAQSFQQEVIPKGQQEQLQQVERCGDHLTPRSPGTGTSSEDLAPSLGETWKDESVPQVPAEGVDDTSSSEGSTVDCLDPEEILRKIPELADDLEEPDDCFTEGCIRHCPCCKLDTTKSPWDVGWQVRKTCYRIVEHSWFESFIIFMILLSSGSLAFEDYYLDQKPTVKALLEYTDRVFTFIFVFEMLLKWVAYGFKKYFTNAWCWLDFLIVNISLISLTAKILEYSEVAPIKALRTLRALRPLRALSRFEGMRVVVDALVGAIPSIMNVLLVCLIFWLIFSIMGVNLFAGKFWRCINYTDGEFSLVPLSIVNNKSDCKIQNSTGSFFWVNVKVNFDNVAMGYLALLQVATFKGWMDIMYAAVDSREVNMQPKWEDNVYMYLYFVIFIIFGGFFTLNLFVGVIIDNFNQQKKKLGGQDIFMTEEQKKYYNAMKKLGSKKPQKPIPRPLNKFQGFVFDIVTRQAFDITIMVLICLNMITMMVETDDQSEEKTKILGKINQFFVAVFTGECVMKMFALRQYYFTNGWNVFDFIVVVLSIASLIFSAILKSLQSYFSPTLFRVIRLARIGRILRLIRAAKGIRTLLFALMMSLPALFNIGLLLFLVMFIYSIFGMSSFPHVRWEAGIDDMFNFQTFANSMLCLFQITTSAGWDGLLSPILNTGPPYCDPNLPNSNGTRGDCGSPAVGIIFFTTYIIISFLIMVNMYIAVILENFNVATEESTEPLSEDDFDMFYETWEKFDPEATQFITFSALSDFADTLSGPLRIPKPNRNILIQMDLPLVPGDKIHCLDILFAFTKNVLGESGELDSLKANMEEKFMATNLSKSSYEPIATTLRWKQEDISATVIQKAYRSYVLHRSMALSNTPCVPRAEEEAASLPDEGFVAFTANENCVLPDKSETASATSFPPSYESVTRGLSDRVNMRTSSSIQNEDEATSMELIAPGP
TEST_METHOD_NOTES: Inhibition of human Nav1.8 stably expressed in SH-SY-5Y cells (membrane potential dye fluorescence assay)
Format: cell-based
CONDITION: hNav1.8 IC50, SH-SY-5Y hNav1.8 cells; FLIPR membrane potential dye; 10 μM pyrethroid, 250 nM TTX; test concentration range 100 μM-0.05 μM
QUANTITY: IC50 (nM)
Lab book: enter the figure in nM, no units written.

Example results:
COMPOUND	QUANTITY	REPORTED_RESULT
CC(c1c(F)cccc1Cl)N1CC2CC1CN2C(=O)Cc1ccc(Oc2ccc(F)cc2)cc1 (single isomer, unassigned) [Example 166]	IC50	3910
CC(c1ccccc1Br)N1CC2CC1CN2C(=O)Cc1ccc(Oc2ccc(F)cc2)cc1 (stereo not shown) [Example 153]	IC50	3330
CC(c1c(F)cccc1Cl)N1CC2CC1CN2C(=O)Cc1ccc(Oc2ccc(F)cc2)cc1 (single isomer, unassigned) [Example 165]	IC50	1230
O=C(Cc1ccc(Oc2ccc(F)cc2)cc1)N1CC2CC1CN2C1CCc2cc(F)ccc2C1 (stereo not shown) [Example 144]	IC50	1600
CC(c1ccccc1Cl)N1CC2CC1CN2C(=O)Cc1ccc(Oc2ccc(F)cc2)cc1 (stereo not shown) [Example 135]	IC50	940
CC(c1ccc(F)cc1Cl)N1CC2CC1CN2C(=O)Cc1ccc(Oc2ccc(F)cc2)cc1 (single isomer, unassigned) [Example 162]	IC50	18300

Now for a further compound.
Task: I have this compound here, O=C(Cc1ccc(Oc2ccccc2)cc1)N1CC2CC1CN2C1Cc2ccc(F)cc2C1 (stereo not shown) [Example 134] , and I need its recorded IC50.
Result: 1600

* * *

TARGET_SYSTEM: human Nav1.8 (hNav1.8) ion channel (Homo sapiens, UniProt Q9Y5Y9)
Construct: expressed in transfected cells
TEST_METHOD_NOTES: Inhibition of human Nav1.8 stably expressed in SH-SY-5Y cells (membrane potential dye fluorescence assay)
Type: cell-based
CONDITION: SH-SY-5Y hNav1.8 cells; FLIPR membrane potential dye; 10 μM pyrethroid, 250 nM TTX; test concentration range 100 μM-0.05 μM; read-out: hNav1.8 IC50
Counter-ions that a name gives are not always drawn.
Each entry below lists one item and its recorded IC50 value.
Lab book: enter the figure in µM, no units written.

MOLECULE	REPORTED_RESULT
CC(c1ccccc1Cl)N1CC2CC1CN2C(=O)c1ccc(Oc2ccc(F)cc2)c(F)c1 (stereo not drawn) [Example 179, methanesulfonate salt]	1.34
Cc1ccccc1CC(C)N1CC2CC1CN2C(=O)Nc1ccc(C(F)(F)F)cc1 (stereo not drawn) [Example 59]	0.75

Task: I have this molecule here, CC(c1ccc(F)cc1Cl)N1CC2CC1CN2C(=O)Nc1ccc(Oc2ccc(F)cc2)cc1 (stereo not drawn) [Example 133] , and I need its recorded IC50.
Result: 1.19

* * *

TARGET_SYSTEM: human Nav1.8 (hNav1.8) ion channel (Homo sapiens)
Construct: expressed in transfected cells
TEST_METHOD_NOTES: Inhibition of human Nav1.8 stably expressed in SH-SY-5Y cells (membrane potential dye fluorescence assay)
Type: cell-based
CONDITION: hNav1.8 IC50, SH-SY-5Y hNav1.8 cells; FLIPR membrane potential dye; 10 μM pyrethroid, 250 nM TTX; test concentration range 100 μM-0.05 μM
pIC50: −log10 of the molar value. Structures can show the parent of a compound that is named as a salt.
# binarize pIC50: threshold 6 inclusive, high side t, low side f

MOLECULE	CLASSIFICATION
CC(c1ccccc1Cl)N1CC2CC1CN2C(=O)Cc1ccc(Oc2ccc(F)cc2)cc1 (stereo not drawn) [Example 136]	f
O=C(Cc1ccc(Oc2ccc(F)cc2)cc1)N1CC2CC1CN2C1CCc2ccccc2C1 (stereo not drawn)	t
Cc1ccccc1C(C)N1CC2CC1CN2C(=O)Nc1ccc(Oc2ccc(F)cc2)cc1 (stereo not drawn) [Example 87, methanesulfonate salt]	t

Attention now turns to another entry.
Task: In plain terms: is recorded pIC50 at least 6 for O=C(Cc1ccc(C(F)(F)F)cc1)N1CC2CC1CN2C1CCc2ccc(F)cc2C1 (stereo not drawn) ?
Result: f
